ASSAY_REMARKS: Fluorescence (λf, quantum yield)
Format: physicochemical
CONDITION_DESCRIPTION: ethanol, excitation 450 and 460 nm, reference acridine orange
Method: Instruments for spectroscopic measurements included: Perkin-Elmer 1600 FTIR, Varian Gernini 300 NMR, Hewlett-Packard 5985 (70 eV) GC-MS, Cary 17 (UV), and Perkin-Elmer LS-5B Luminescence spectrometer. […] Laser energy outputs were measured with an accuracy of ±5% by a Scientech 365 power and energy meter. Light absorption, luminescence, and laser activity properties for the dyes 7 are described in Table VI. Each recorded UV absorption was restricted to the highest wave length. […]
MEASURE_NAME: .PHI.f (fluorescence quantum yield)

SMILES_STRING	.PHI.f (fluorescence quantum yield)
CCCCC1=C(C)C2=C(C)c3c(C)c(CCCC)c(C)n3[B-](F)(F)[N+]2=C1C	0.90
CCOC(=O)C1=C(C)C2=C(C#N)c3c(C)c(C(=O)OCC)c(C)n3[B-](F)(F)[N+]2=C1C	0.82

[1] CC(=O)NC1=C(C)C2=C(C)c3c(C)c(NC(C)=O)c(C)n3[B-](F)(F)[N+]2=C1C
[2] CC1=C(C(C)(C)C)C(C)=[N+]2C1=C(C)c1c(C)c(C(C)(C)C)c(C)n1[B-]2(F)F
Quick one: lower .PHI.f (fluorescence quantum yield), 1 or 2 ? Write the label of whichever entry you select.
1

---

ASSAY_REMARKS: Fluorescence (λf, quantum yield)
Type: physicochemical
CONDITION_DESCRIPTION: 2 × 10^-4 M in ethanol
MEASURE_NAME: λf (nm)

SMILES_STRING	UNIT_DESCRIPTOR	λf
CC1=C(C(C)(C)C)C(C)=[N+]2C1=C(C)c1c(C)c(C(C)(C)C)c(C)n1[B-]2(F)F	nm	567
CCC1=C(C)C2=C(c3ccc(N(C)C)cc3)c3c(C)c(CC)c(C)n3[B-](F)(F)[N+]2=C1C	nm	575
CC1=C(C(C)(C)C)C(C)=[N+]2C1=Cc1c(C)c(C(C)(C)C)c(C)n1[B-]2(F)F	nm	554
COC1=C(C)C(C)=[N+]2C1=C(C)c1c(OC)c(C)c(C)n1[B-]2(F)F	nm	522

---

ASSAY_REMARKS: UV light absorption (λmax, log ε)
Format: physicochemical
CONDITION_DESCRIPTION: solvent as for λmax (ethanol except where noted)
MEASURE_NAME: log ε

SMILES_STRING	ASSAY_RESULT
CCC1=C(C)C2=C(C(C)C)c3c(C)c(CC)c(C)n3[B-](F)(F)[N+]2=C1C	4.84
CCC1=C(c2ccccc2)C2=Cc3c(-c4ccccc4)c(CC)c(C)n3[B-](F)(F)[N+]2=C1C	5.00
CCC1=C(C)C2=C(C#N)c3c(C)c(CC)c(C)n3[B-](F)(F)[N+]2=C1C	4.72
CC1=C(C(C)(C)C)C(C)=[N+]2C1=Cc1c(C)c(C(C)(C)C)c(C)n1[B-]2(F)F	4.93
CCCCC1=C(C)C2=C(C)c3c(C)c(CCCC)c(C)n3[B-](F)(F)[N+]2=C1C	4.92
CC1=C(c2ccccc2)C(C)=[N+]2C1=C(C)c1c(C)c(-c3ccccc3)c(C)n1[B-]2(F)F	4.90
CCC1=C(CC)C(C)=[N+]2C1=Cc1c(CC)c(CC)c(C)n1[B-]2(F)F	4.89
CCC1=C(C)C2=C(c3ccc(N(C)C)cc3)c3c(C)c(CC)c(C)n3[B-](F)(F)[N+]2=C1C	4.95
